Data origin, for the record: patent US20110263664A1

biological target: PIM1 (Homo sapiens); assay: Pim-1 protein kinase assay (Procedure 1), Table 1; format: biochemical; parameters: purchased Upstate 14-573
Sequence (P11309 whole entry): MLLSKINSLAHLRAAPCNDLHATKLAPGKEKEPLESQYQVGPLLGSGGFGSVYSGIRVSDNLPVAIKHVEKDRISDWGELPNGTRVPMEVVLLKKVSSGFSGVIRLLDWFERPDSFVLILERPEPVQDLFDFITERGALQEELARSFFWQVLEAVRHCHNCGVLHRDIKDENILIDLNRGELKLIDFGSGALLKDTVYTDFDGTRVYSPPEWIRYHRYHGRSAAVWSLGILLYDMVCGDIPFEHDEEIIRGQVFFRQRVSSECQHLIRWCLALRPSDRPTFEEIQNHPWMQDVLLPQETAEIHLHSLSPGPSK
measure: IC50 (µM)
Report the value in µM with no unit label.

Consider the worked cases shown below.
{"compound": "O=C1S/C(=C\\c2ccc(F)cc2)C(=O)N1Cc1ccccc1F [Compound D27]", "unit.abbreviation": "µM", "result.number": 45}
{"compound": "CN(C)c1ccc(/C=C2\\SC(=O)NC2=O)cc1 [Compound D20]", "unit.abbreviation": "µM", "result.number": 6}
{"compound": "CC(C)c1ccc(/C=C2\\SC(=O)NC2=O)cc1 [Compound D17]", "unit.abbreviation": "µM", "result.number": 0.04}

Would you kindly look at the next entry?
-- ask // lookup IC50 for O=C1NC(=O)/C(=C/c2ccc(Cl)cc2)S1 [Compound D10]
-- reply 0.04
